# subject of test: Thermosynechococcus elongatus PKUAC-SCTE542 protoporphyrinogen IX oxidase CyPPO19, wild type, SEQ ID NO: 1 (MBP fusion) (Thermosynechococcus sichuanensis)
# Sequence (A0A7D6JSC1 1-467): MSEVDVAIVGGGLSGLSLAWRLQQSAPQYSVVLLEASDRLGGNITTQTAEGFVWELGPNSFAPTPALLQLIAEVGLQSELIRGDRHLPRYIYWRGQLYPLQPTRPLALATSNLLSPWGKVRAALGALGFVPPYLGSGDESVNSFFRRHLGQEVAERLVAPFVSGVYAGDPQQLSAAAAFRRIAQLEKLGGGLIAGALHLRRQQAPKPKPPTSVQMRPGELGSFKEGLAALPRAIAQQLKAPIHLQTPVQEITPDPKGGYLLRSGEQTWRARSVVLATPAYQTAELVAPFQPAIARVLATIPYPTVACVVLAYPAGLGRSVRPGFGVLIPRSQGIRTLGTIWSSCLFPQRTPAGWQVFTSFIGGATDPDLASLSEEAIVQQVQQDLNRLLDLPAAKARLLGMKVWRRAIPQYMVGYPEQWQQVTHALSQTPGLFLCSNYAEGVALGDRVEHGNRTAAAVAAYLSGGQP
# test method notes: PPO enzyme inhibition assay (IC50 for herbicides), CyPPO19 wild type fused to MBP
# Assay type: biochemical
# experimental parameters: CyPPO19 WT; 50 μM protoporphyrinogen IX, pH 7.5, room temperature, 30 min; read-out: IC50
property: IC50 (µM)
Please give a number only; it is taken to be in µM.

Bench note: what IC50 did COC(=O)CCNC(=O)C(C)Sc1cc(-n2c(=O)cc(C(F)(F)F)n(C)c2=O)c(F)cc1Cl (stereo not shown) show?
0.067

---

# subject of test: Thermosynechococcus elongatus PKUAC-SCTE542 protoporphyrinogen IX oxidase CyPPO19 (SEQ ID NO: 1) variant A167I (MBP fusion) (Thermosynechococcus sichuanensis, UniProt A0A7D6JSC1, A167I)
# test method notes: biochemical
# experimental parameters: 50 μM protoporphyrinogen IX, pH 7.5, room temperature, 30 min, 10,000 means equivalent to or higher, read-out: IC50
property: pIC50
Here pIC50 is given on a logarithmic scale as minus log10 of the concentration in mol/L.

# annotated cases, reported pIC50 shown
>  <molecule>
CCOc1cc(Oc2ccc(C(F)(F)F)cc2Cl)ccc1[N+](=O)[O-]

>  <pIC50>
5.88

$$$$
>  <molecule>
CS(=O)(=O)NC(=O)c1cc(Oc2ccc(C(F)(F)F)cc2Cl)ccc1[N+](=O)[O-]

>  <pIC50>
6.05

$$$$

Bench note: what pIC50 did COC(=O)CCNC(=O)C(C)Sc1cc(-n2c(=O)cc(C(F)(F)F)n(C)c2=O)c(F)cc1Cl (stereo not drawn) show?
6.61

Source listed as patent US12698507B2.
